# Assayed system: SARS-CoV-2 spike protein receptor binding domain (RBD2) (SARS-CoV-2, UniProt P0DTC2 319-537)
# Assay text: flow cytometry, yeast-expressed scFv
Measured attribute: Kd (nM)
One number for each entry, in nM.

Hey, quick one: what's Kd for each of these?
1. E01 scFv (scFv, also called E1) scFv: SYELTQPPSVSVAPGETARITCGGDNIGRRHVHWYQQKPGQAPVLVIYDDSDRPSGIPDRFSGSNSGNTATLTIGRVEAGDEADYYCQVWGSSNDPHVFGTGTKLTVLSGGSTITSNNVYYTKLSSSGTQVQLQQWGAGLLKPSETLSLKCAVYGGSFSGYYWGWIRQSTGKGLEWIGEINRSGSTNYNPSLKSRVTISVDTSKNQFSLKLSSVTAADTAVYYCARGGARYYYGSGSYRSTPRPYYFDYWGQGTLVTVSS
2. R09 scFv (scFv) scFv: QPGLTQPPSVSVSPGQTASITCSGDKLGYKYVSWYQQKPGQSPVLVIYEDTKRPSGIPKRFSGSNSGNTATLTICGTQAVDEADYYCQAWDSSVVFGGGTKLTVLSGGSTITSYNVYDTKLSSSGTQVQLVQSGAEVKKPGASVKVSCKASGYTFTSYGISWVRQAPGQGLEWMGWISAYNGNTNYAQKFQGRVTMTTDTSTSTAYMELRSLRSDDTAVYYCARDMELRPPFDYWGQGTLVTVSS
3. D07 scFv (scFv) scFv: SYELTQPPSVSVAPGETARMTCGGNNIGTKGVHWYQQKPGQAPVLVVYDDSDRPSGIPERFSGSNAGNTATLTISRVEAGDEADYYCQVWDSRSDQYVFGTRTKLTVLSGGSTITSYNVYYTKLSSSGAQVTLKESGPVLVKPTETLTLTCTVSGFSLSNARMGVSWIRQPPGKALEWLAHIFSNGEKSYSTSLKSRLTISKDTSKSQVVLTMTNMDPVDTATYYCARTLDYYDSSGYLVGGAFDIWGQGTMVTVSS
4. F07 scFv (scFv) scFv: SYVLTQPPSVSVAPGQTARITCGGNNIGSKSVHWYQQKPGQAPVLVVYDDSDRPSGIPERFSGSNSGNTATLIISRVEAGDEADYYCQVWDSSSVHYVFGTGTKLTVLSGGSTITSYNVYYTKLSSSGTQVQLVQSGAEVKKPGSSVRVSCKVSGYTFTGYYMHWVRQAPGQGLEWMGIINPSGGSTSYAQKFQGRVTMTRDTSTSTVYMELSSLRSEDTAVYYCARVRVGASDAFDIWGQGTMVTVSS

Reply:
16.1
4820
268
280
